Values from ChEMBL document CHEMBL3988442

Tested on: Wolbachia pipientis
Assay: Anti-Wolbachia Cell-Based Screen
Format: functional
Design: scale not given: in the data most compounds retested in dose-response had high values
Conditions: 5 µM
Among all 48,000 compounds or so, about 13,000 (27%) showed an effect of 50% or more. Some of the results follow.
property-measured: Percent Effect
Entry format: amount then unit.

CCC(CO)N(Cc1ccccn1)C(=O)c1cccc(C#N)c1 (stereo unspecified)    -13.95%
CC(C)C(=O)NCCNC(=O)C12CCC(=O)N1c1cc(Cl)ccc1S2 (stereo unspecified)    -7.313%
CN(C)Cc1nc(C(C)(C)NC(=O)c2ccc3ccccc3c2)no1    -5.67%

Asked: Item under review: "Cc1ccc2[nH]c(CO[C@H]3CN(C(=O)C4CC4)C[C@H]3F)nc2c1" . Reported Percent Effect?
Given back: -10.96%

Asked: Give its Percent Effect value. Item: O=C(CCN1CCOC(C(F)(F)F)C1)NCc1ccccc1Cl (stereo unspecified)
Given back: 4.795%

Asked: Need Percent Effect of "Cc1ccc(OCC(=O)NC2(C#N)CCSCC2)cc1C" , thanks.
Given back: -7.391%
